- system_name: human GPR17 short isoform (Homo sapiens (Human), UniProt Q13304)
- Sequence (Q13304 29-367): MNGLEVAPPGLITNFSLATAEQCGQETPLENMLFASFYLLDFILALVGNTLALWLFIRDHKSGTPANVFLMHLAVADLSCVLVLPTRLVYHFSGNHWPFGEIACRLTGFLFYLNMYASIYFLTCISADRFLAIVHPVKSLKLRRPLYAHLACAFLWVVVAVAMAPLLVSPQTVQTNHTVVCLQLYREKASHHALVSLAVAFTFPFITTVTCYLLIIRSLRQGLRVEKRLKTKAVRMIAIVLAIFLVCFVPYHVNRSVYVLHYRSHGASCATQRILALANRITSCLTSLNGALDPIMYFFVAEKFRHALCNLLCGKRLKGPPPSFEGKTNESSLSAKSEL
- protocol_summary: GPR17 cAMP assay (hGPR17 cAMP, antagonist mode against EC80 of MDL29,951)
- run_parameters: CHO-K1 cells stably expressing human GPR17 short isoform; EC80 of agonist MDL29,951; forskolin 15 μM
measurement_kind: log10 of IC50 (log10 of the value in µM)
# log10 transformed; quantity=IC50; unit=µM

{"compound_string": "COc1nc(NS(=O)(=O)c2c[nH]c3c(Cl)c(Cl)ccc23)ncc1CCC(F)F", "log10 of IC50": -1.52}
{"compound_string": "COc1nc(NS(=O)(=O)c2c[nH]c3cc(Cl)ccc23)nc(OC)c1Cl", "log10 of IC50": -1.04}
{"compound_string": "COc1nc(NS(=O)(=O)c2c[nH]c3nc(Br)ccc23)nc(OC)c1OCC#N", "log10 of IC50": -1.35}
{"compound_string": "COc1nc(NS(=O)(=O)c2c[nH]c3nc(Cl)ccc23)nc(OC)c1CC(F)F", "log10 of IC50": -1.40}
{"compound_string": "COc1nc(NS(=O)(=O)c2c[nH]c3cc(Cl)ccc23)nc(OC)c1CC(F)F", "log10 of IC50": -2.10}

log10 of IC50 reported for this molecule COc1nc(NS(=O)(=O)c2c[nH]c3cc(Cl)ccc23)ncc1OC(F)F : -0.74

log10 of IC50 reported for this molecule COc1nc(NS(=O)(=O)c2c[nH]c3cc(C(C)(C)O)ccc23)ncc1CC(F)F : -0.63

log10 of IC50 reported for this molecule COc1nc(NS(=O)(=O)c2csc3cc(C)ccc23)ncc1OCCF : -0.66

----------
- protocol_summary: Microsome clearance assay, rat
- run_parameters: microsomes
compounds and their reported microsomal CLint at 1 µM
Quick note: give the figure in µL/min/mg, leave out the unit.

The examples below pair each entry with its known result.
{"compound": "COc1nc(NS(=O)(=O)c2c[nH]c3cc(Cl)ccc23)c(F)cc1OCCF [RE-A, reference compound]", "units_of_measure": "µL/min/mg", "number": 357}
{"compound": "COc1nc(NS(=O)(=O)c2c[nH]c3cc(Cl)ccc23)c(F)cc1CCC#N [RE-D, reference compound]", "units_of_measure": "µL/min/mg", "number": 869}
{"compound": "COc1nc(NS(=O)(=O)c2c[nH]c3cc(Cl)ccc23)ncc1CCC#N", "units_of_measure": "µL/min/mg", "number": 33}
{"compound": "COc1nc(NS(=O)(=O)c2c[nH]c3cc(Cl)ccc23)ncc1OCCF", "units_of_measure": "µL/min/mg", "number": 29}
{"compound": "COc1nc(NS(=O)(=O)c2c[nH]c3c(F)c(Cl)ccc23)c(F)cc1OCC(F)F [RE-B, reference compound]", "units_of_measure": "µL/min/mg", "number": 65}
{"compound": "COc1nc(NS(=O)(=O)c2c[nH]c3cc(Cl)ccc23)ncc1Br", "units_of_measure": "µL/min/mg", "number": 10}
{"compound": "COc1nc(NS(=O)(=O)c2c[nH]c3cc(Cl)ccc23)ncc1CC(F)F", "units_of_measure": "µL/min/mg", "number": 110}
{"compound": "COc1nc(NS(=O)(=O)c2c[nH]c3cc(Cl)ccc23)c(F)cc1CC(F)F [RE-C, reference compound]", "units_of_measure": "µL/min/mg", "number": 286}

Turning now to a further compound:
microsomal CLint at 1 µM reported for this compound COc1nc(NS(=O)(=O)c2c[nH]c3c(F)c(Cl)ccc23)ncc1OCC(F)F : 10
